Test system: Helicobacter pylori
Assay: Minimum inhibitory concentration against Helicobacter pylori.
Type: functional
Measurement Name: MIC

// recorded MIC for CNC(=O)c1cccc(NC(=O)Cc2cccc(Cl)c2)c1 : 0.39 µg/mL

// recorded MIC for O=C(Cc1cccc(Br)c1)Nc1cccc(C(=O)NO)c1 : 12.5 µg/mL

// recorded MIC for CNC(=O)c1cccc(NC(=O)Cc2ccc3ccccc3c2)c1 : 0.05 µg/mL

// recorded MIC for CNC(=O)c1cccc(NC(=O)OCc2ccc3ccccc3c2)c1 : 0.1 µg/mL

// recorded MIC for CCNC(=O)c1cccc(NC(=O)Cc2cccc(Br)c2)c1 : 3.12 µg/mL

// recorded MIC for CNC(=O)c1cccc(NC(=O)Cc2csc3ccccc23)c1 : 0.1 µg/mL

// recorded MIC for CNC(=O)c1cccc(NC(=O)OCc2ccc(C)cc2)c1 : 0.1 µg/mL

// recorded MIC for CNC(=O)c1cccc(NC(=O)Cc2cccc([N+](=O)[O-])c2)c1 : 3.12 µg/mL

// recorded MIC for CCOC(=O)c1cccc(NC(=O)Cc2cccc(Br)c2)c1 : > 100 µg/mL

// recorded MIC for CC[C@H]1OC(=O)[C@H](C)[C@@H](O[C@H]2C[C@@](C)(OC)[C@@H](O)[C@H](C)O2)[C@H](C)[C@@H](O[C@@H]2O[C@H](C)C[C@H](N(C)C)[C@H]2O)[C@](C)(OC)C[C@@H](C)C(=O)[C@H](C)[C@@H](O)[C@]1(C)O : 0.05 µg/mL

// recorded MIC for CNC(=O)c1cccc(NC(=O)Cc2ccc(Cl)cc2)c1 : 0.78 µg/mL

// recorded MIC for CNC(=O)c1cccc(NC(=O)OCc2cccc3ccccc23)c1 : 0.05 µg/mL

// recorded MIC for CNC(=O)c1cccc(NC(=O)Cc2cccc(Br)c2)c1 : 0.39 µg/mL

// recorded MIC for CNC(=O)c1cccc(NC(=O)CCc2ccccc2OC)c1 : 0.78 µg/mL

// recorded MIC for CNC(=O)c1cccc(NC(=O)Cc2ccccc2Cl)c1 : 3.12 µg/mL

// recorded MIC for CNC(=O)c1cccc(NC(=O)Cc2cccc3ccccc23)c1 : 0.1 µg/mL

----------
System: Helicobacter pylori
Assay: Minimum inhibitory concentration against Helicobacter pylori.
Format: functional
Label Satisfied when MIC is strictly below 0.8 µg/mL; at or above that, label Not satisfied.

| Chemical Smiles | Class Assignment |
| --- | --- |
| CNC(=O)c1cccc(NC(=O)COc2ccc3ccccc3c2)c1 | Satisfied |
| CNC(=O)c1cccc(NC(=O)OCc2c(Cl)cccc2Cl)c1 | Satisfied |
| CNC(=O)c1cccc(NC(=O)OCc2ccc(Cl)cc2)c1 | Satisfied |
| CNC(=O)c1cccc(NC(=O)CC2CCCCC2)c1 | Not satisfied |
| CN(C)C(=O)c1cccc(NC(=O)Cc2cccc(Br)c2)c1 | Not satisfied |

Check if MIC falls below 0.8 µg/mL for CNC(=O)c1cccc(NC(=O)Cc2cccc(C)c2)c1 .
Satisfied

Check if MIC falls below 0.8 µg/mL for CONC(=O)c1cccc(NC(=O)Cc2cccc(Br)c2)c1 .
Not satisfied

Check if MIC falls below 0.8 µg/mL for CNC(=O)c1cccc(NC(=O)Cc2cccc(F)c2)c1 .
Not satisfied

Check if MIC falls below 0.8 µg/mL for CNC(=O)c1cccc(NC(=O)Cc2ccccc2)c1 .
Not satisfied

----------
Let's look at some compounds and their measured MIC.
System: Helicobacter pylori
Assay: Minimum inhibitory concentration against Helicobacter pylori.
Type: functional
Answer format: numeric, µg/mL implied, no suffix.

Below: 5 compounds and their reported MIC.
| Chemical Smiles | Target Entity | Measure Unit | MIC |
| --- | --- | --- | --- |
| CNC(=O)c1cccc(NC(=O)COc2cccc(Cl)c2Cl)c1 | Helicobacter pylori | µg/mL | 0.39 |
| CNC(=O)c1cccc(NC(=O)COc2cccc3ccccc23)c1 | Helicobacter pylori | µg/mL | 0.1 |
| CNC(=O)c1cccc(NC(=O)Cc2cccc(O)c2)c1 | Helicobacter pylori | µg/mL | 6.25 |
| CNC(=O)c1cccc(NC(=O)COc2ccccc2)c1 | Helicobacter pylori | µg/mL | 3.12 |
| CNC(=O)c1cccc(NC(=O)Cc2cccc(OC)c2)c1 | Helicobacter pylori | µg/mL | 0.78 |

// recorded MIC for CNC(=O)c1cccc(NC(=O)Cc2ccc3c(c2)OCO3)c1 : 0.78

// recorded MIC for CNC(=O)c1cccc(NC(=O)CCc2ccccc2)c1 : 12.5

// recorded MIC for NC(=O)c1cccc(NC(=O)Cc2cccc(Br)c2)c1 : 100

----------
Test system: Helicobacter pylori
Assay: Minimum inhibitory concentration against Helicobacter pylori.
Assay type: functional
Let's look at some compounds and their measured MIC.
Answer format: numeric, µg/mL implied, no suffix.

| Chemical Smiles | Measure Unit | Value Measured |
| --- | --- | --- |
| CNC(=O)c1cccc(NC(=O)Cc2ccc(Br)cc2)c1 | µg/mL | 0.78 |
| CNC(=O)c1cccc(NC(=O)Cc2c[nH]c3ccccc23)c1 | µg/mL | 0.78 |

// recorded MIC for CNC(=O)c1cccc(NC(=O)Cc2cccc(OCc3ccccc3)c2)c1 : 0.78

Data origin: ChEMBL document CHEMBL1134310
